- Read-out: Cyclin D2 (CCND2), CCND2 (gene 894)
- test: LTEA_HepaRG_CCND2: Life Technologies and Expression Analysis (LTEA) Assay for Cyclin D2 (CCND2) using HepaRG (AID 2283449);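 note: CCND2 transcript measured by TaqMan qRT-PCR and normalised to three housekeeping genes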
- condition.label: mRNA level, 48 h; actives raise or lower the signal
The source made the active and inactive calls. Rule for the calls: active = hit-call score of the fitted dose curve at least 0.9, where 1 is the maximum; inactive = score below 0.9.
quantity.kind: AC50

CC(=O)[C@@]1(O)CC[C@H]2[C@@H]3CCC4=CC(=O)CC[C@]4(C)[C@H]3CC[C@@]21C :: inactive
O=C(Oc1ccccc1)c1cccc(C(=O)Oc2ccccc2)c1 :: inactive
CCCCCCCCCCCCCCCCO :: inactive
CC(=O)OC1CC(C)OC(C)O1 (stereo not given) :: inactive
CCCCc1nc2cccnc2n1Cc1ccc(-c2ccccc2-c2nnn[nH]2)cc1 :: inactive
COC(=O)[C@H]1[C@H]2C[C@@H]3c4[nH]c5cc(OC)ccc5c4CCN3C[C@H]2C[C@@H](OC(=O)c2cc(OC)c(OC)c(OC)c2)[C@@H]1OC :: 14.9 µM (active)

Ask: // query AC50 value for entry `CC(C)(C)c1ccccc1`
Reply: inactive

Ask: Do the same for `Nc1nc(Cl)nc2c1ncn2[C@H]1C[C@H](O)[C@@H](CO)O1` please
Reply: inactive

Ask: Moving on to `CCCCCCCCCCCCCCOS(=O)(=O)O`
Reply: inactive

Ask: Same question for `O=C(N[C@@H](c1ccccc1)[C@@H]1CCCCN1)c1cccc(C(F)(F)F)c1Cl` please.
Reply: inactive

Ask: Again, but for CCCCCCC(CCCCCCCCCCC(=O)OCC(COC(C)=O)OC(C)=O)OC(C)=O (stereo not given)
Reply: inactive

Ask: One more molecule: `O=C1NC(=O)C(c2ccccc2)(c2ccccc2)N1`
Reply: inactive

Ask: Would you kindly repeat that for `CCN(CC)CCOc1ccc(C(=C(Cl)c2ccccc2)c2ccccc2)cc1` ?
Reply: inactive

Ask: Also `Oc1ccc(O)cc1` ?
Reply: inactive

Ask: `O=C1CCCCC1` ?
Reply: inactive

###

- Read-out: Intercellular Adhesion Molecule 1 (ICAM1), ICAM1 (gene 3383)
- test: BSK_3C_ICAM1: BioMAP Diversity Plus: 3C Assay for Intercellular Adhesion Molecule 1 (ICAM1) Biomarker Activity (AID 2283003)
- condition.label: primary human endothelial cells (HUVEC); actives raise or lower the signal
Activity calls are given as the source filed them. Rule for the calls: active = hit-call score of the fitted dose curve at least 0.9, where 1 is the maximum; inactive = score below 0.9.
quantity.kind: outcome

The cases that follow already have their outcome on record.
CC(=O)OCC(COC(C)=O)OC(C)=O :: inactive
CCCCCCC(CCCCCCCCCCC(=O)OCC(COC(C)=O)OC(C)=O)OC(C)=O (stereo not drawn) :: inactive
CN(C)C(=O)NC1(c2ccccc2)CCN(CCC[C@]2(c3ccc(Cl)c(Cl)c3)CCCN(C(=O)c3ccccc3)C2)CC1 :: inactive
C=CCc1ccc(OC)c(OC)c1 :: inactive
O=C(NS(=O)(=O)/C=C/c1cccs1)c1ccc(F)cc1Br :: inactive
NC1CCCCC1 :: inactive
O=C(O)CN(CC(=O)O)CC(=O)O :: inactive
NCCOCCOCCN :: inactive
N[C@@H](Cc1c[nH]c2ccccc12)C(=O)O :: inactive
CC(C)(C)c1ccccc1 :: inactive

Ask: Fill in: outcome of `S=c1[nH]c2ccccc2s1` is ___
Reply: inactive

Ask: Follow-up item: `Nc1nc(=S)c2[nH]cnc2[nH]1`
Reply: inactive

Ask: Next record, please: `CC1=C(C)S(=O)(=O)CCS1(=O)=O`
Reply: inactive
